Source: patent USRE50631

Target: human receptor tyrosine kinase like orphan receptor 1 (ROR1) (human, UniProt Q01973 30-937)
Sequence (Q01973 30-937): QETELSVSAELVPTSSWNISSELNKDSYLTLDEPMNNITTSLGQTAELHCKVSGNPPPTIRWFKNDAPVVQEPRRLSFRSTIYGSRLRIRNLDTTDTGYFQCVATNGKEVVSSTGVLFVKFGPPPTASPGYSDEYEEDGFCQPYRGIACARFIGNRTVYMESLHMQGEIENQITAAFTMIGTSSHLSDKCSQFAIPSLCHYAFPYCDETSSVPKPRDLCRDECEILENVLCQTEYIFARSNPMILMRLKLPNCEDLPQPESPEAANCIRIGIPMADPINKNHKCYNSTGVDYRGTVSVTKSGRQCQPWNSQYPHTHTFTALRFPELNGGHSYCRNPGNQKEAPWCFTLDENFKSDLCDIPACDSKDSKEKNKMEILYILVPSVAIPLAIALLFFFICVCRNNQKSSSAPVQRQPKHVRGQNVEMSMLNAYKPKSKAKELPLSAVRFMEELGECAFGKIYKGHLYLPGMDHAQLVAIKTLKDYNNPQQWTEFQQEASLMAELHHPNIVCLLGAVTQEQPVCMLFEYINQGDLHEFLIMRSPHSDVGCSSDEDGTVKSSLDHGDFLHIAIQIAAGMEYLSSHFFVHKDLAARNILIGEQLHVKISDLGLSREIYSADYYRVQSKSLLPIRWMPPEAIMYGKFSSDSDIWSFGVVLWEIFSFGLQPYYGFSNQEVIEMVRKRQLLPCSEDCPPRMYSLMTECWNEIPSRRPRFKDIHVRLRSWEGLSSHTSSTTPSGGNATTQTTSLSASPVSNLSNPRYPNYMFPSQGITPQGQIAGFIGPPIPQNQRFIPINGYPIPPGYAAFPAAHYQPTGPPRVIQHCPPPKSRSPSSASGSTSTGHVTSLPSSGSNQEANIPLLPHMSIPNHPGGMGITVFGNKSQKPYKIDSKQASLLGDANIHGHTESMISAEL
Assay: cell-based or functional assay
value-kind: IC50, cell viability (CellTiter-Glo, 72 h), A2008 cells

[
  {
    "binder": "ADC-F (antibody, human IgG1, kappa, V domains shown, SC-VC-PAB-DM1 bonded via lysine residues of the antibody (chain and positions not stated)) VH: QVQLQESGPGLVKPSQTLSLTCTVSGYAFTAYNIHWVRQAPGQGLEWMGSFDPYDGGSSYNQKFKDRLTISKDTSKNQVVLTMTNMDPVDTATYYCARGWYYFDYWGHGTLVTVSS VL: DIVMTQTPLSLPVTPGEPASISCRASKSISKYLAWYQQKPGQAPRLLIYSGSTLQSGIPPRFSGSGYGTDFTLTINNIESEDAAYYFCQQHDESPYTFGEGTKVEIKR",
    "reported-value": "> 1000 nM"
  },
  {
    "binder": "ADC-B (antibody, human IgG1, kappa, V domains shown, SMCC-DM1 bonded via lysine residues of the antibody (chain and positions not stated); SMCC-DM1 bonded via lysine residues of the antibody (chain and positions not stated); DAR 3.0 to 3.20) VH: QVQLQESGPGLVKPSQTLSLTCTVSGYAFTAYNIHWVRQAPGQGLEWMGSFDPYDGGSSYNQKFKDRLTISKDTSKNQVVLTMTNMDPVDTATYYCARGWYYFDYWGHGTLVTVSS VL: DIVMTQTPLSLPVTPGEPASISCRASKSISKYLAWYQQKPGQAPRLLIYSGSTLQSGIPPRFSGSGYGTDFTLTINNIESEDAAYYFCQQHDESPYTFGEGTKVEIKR",
    "reported-value": "49 nM"
  }
]

API: the following record is the query input.
## Input Look at this binder and give its reported IC50, cell viability (CellTiter-Glo, 72 h), A2008 cells. ADC-C (antibody, human IgG1, kappa, V domains shown, MAL-VC-PAB-DM1 bonded via cysteine residues of the antibody (chain and positions not stated)) VH: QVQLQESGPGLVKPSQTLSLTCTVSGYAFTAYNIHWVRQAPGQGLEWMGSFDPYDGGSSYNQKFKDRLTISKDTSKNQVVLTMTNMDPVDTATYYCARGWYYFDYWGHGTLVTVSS VL: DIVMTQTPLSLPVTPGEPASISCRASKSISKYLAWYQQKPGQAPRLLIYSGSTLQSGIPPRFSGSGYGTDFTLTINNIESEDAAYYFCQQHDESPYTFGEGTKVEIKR
## Output > 1000 nM
